assay: physchem; assay type: physicochemical; settings: water
Counter-ions that a name gives are not always drawn.
measurement.label: solubility

So what does the record say about solubility for CCCNC[C@]1(O)C(C)OC(OC2C(C)C(=O)OC(CC)[C@@](C)(O)[C@H](O)[C@@H](C)NC[C@H](C)C[C@](C)(O)[C@H](OC3OC(C)CC(N(C)C)[C@H]3O)C2C)C[C@@]1(C)OC (stereo partly shown) [crystalline diphosphate salt] ?
~280 mg/mL
